Cited source: patent US7976843B2

# TESTED_ON: HLA A2.1 molecule (Homo sapiens, UniProt P04439, D140Y/D185E/D98H/E176V/E277Q/G131W/G231S/I119V/I121R/I166T/I218V/L300P/L318F/N151K/N90K/P208A/P217A/Q86G/Q94H/R138H/R169H/T345S)
# Format: binding
Each record gets a class by RA, P1Y peptides: bottom (below 2), middle (2 to below 5), top (5 or more)

Some solved cases for reference:
> print(dat)
    ordered.residues  category
1    LLWKGEGAV [L9V]    bottom
2    EMMTACQGV [E9V]    bottom
3  LLDTGADDTV [L10V]    bottom
4    ALVEICTEM [A9M]    bottom

Query string: # bin label for PLVKLWYQL [P9L]
Result string: middle

Query string: # bin label for KLTPLCVSL [K9L]
Result string: bottom

Query string: # bin label for VLDVGDAYFSV [V11V]
Result string: middle

Query string: # bin label for VIYQYMDDL [V9L]
Result string: top

Query string: # bin label for AFHNVAREL [A9L]
Result string: top

----------
# System: RMAS-HHD targets loaded with peptide
# ASSAY_PROTOCOL: Immunogenicity: CTL generation in HHD transgenic mice, 51Cr lysis of peptide-loaded targets
# Format: in vivo
# TEST_CONDITIONS: mouse, in vivo, sc
Listing of entries alongside the reported Responders/total mice.

> print(dat)
        ordered.residues      recorded.endpoint  result
1  MLGTHTMEV [gp100 178]  Responders/total mice     4/6

Please look at the following sequence next.
The sequence listed as AMLGTHTMEV [gp100 177, reference compound] has a reported Responders/total mice of 3/5

----------
Listing of entries alongside the reported DC, Native peptides.
# TESTED_ON: HLA A2.1 molecule (Homo sapiens, UniProt P04439, D140Y/D185E/D98H/E176V/E277Q/G131W/G231S/I119V/I121R/I166T/I218V/L300P/L318F/N151K/N90K/P208A/P217A/Q86G/Q94H/R138H/R169H/T345S)
# ASSAY_PROTOCOL: Stability of the peptide/HLA A2.1 complex (DC50) on T2 cells, flow cytometry
# Type: binding
# TEST_CONDITIONS: HIV 1 peptides
# Protocol: For each incubation time, the cells are then labeled, as indicated above, with the BB7.2 antibody, and analyzed by flow cytometry in order to evaluate the amount of peptide/HLA A2.1 complex present at their surface. […] The DC50 (dissociation complex: DC) is defined as being the time required for the loss of 50% of the HLA A2.1/peptide complexes stabilized at t=0.

> print(dat)
   ordered.residues  result
1   KLTPLCVSL [K9L]    >6 h

The sequence listed as LLDTGADDTV [L10V] has a reported DC, Native peptides of <2 h

The sequence listed as EMMTACQGV [E9V] has a reported DC, Native peptides of <2 h

The sequence listed as VLDVGDAYFSV [V11V] has a reported DC, Native peptides of 2 h

----------
Listing of entries alongside the reported DC50.
# TESTED_ON: HLA A2.1 molecule (Homo sapiens, UniProt P04439, D140Y/D185E/D98H/E176V/E277Q/G131W/G231S/I119V/I121R/I166T/I218V/L300P/L318F/N151K/N90K/P208A/P217A/Q86G/Q94H/R138H/R169H/T345S)
# ASSAY_PROTOCOL: Stability of the peptide/HLA A2.1 complex (DC50) on T2 cells, flow cytometry
# Type: binding
# TEST_CONDITIONS: native TERT peptides

> print(dat)
       ordered.residues  result
1   RLFFYRKSV [mhp 572]    <2 h
2    SLFDFFHFL [mp 797]    >6 h
3  DLQVNSLQTV [mhp 988]    <2 h
4    ILATFLAWL [mp 530]    >6 h

Please look at the following sequence next.
The sequence listed as QLLRSFFHFL [mp 545] has a reported DC50 of >6 h

----------
Listing of entries alongside the reported DC50.
# TESTED_ON: HLA A2.1 molecule (Homo sapiens, UniProt P04439, D140Y/D185E/D98H/E176V/E277Q/G131W/G231S/I119V/I121R/I166T/I218V/L300P/L318F/N151K/N90K/P208A/P217A/Q86G/Q94H/R138H/R169H/T345S)
# ASSAY_PROTOCOL: Stability of the peptide/HLA A2.1 complex (DC50) on T2 cells, flow cytometry
# Type: binding
# TEST_CONDITIONS: native peptides; time for loss of 50% of HLA A2.1/peptide complexes

> print(dat)
                           ordered.residues    result
1  QLMPYGCLL [HER-2/neu 799, reference compound]  6 to 8 h
2                 PLQPEQLQV [HER-2/neu 391]       2 h
3               FLPWHRLFLL [Tyrosinase 207]       2 h
4                   PLEEELPRL [HBV pol 594]      <2 h
5                 TLEEITGYL [HER-2/neu 402]      <2 h
6  VLYRYGSFSV [gp100 476, reference compound]       6 h

The sequence listed as GILGPVFTL [Flu M58, reference compound] has a reported DC50 of >8 h

The sequence listed as LLDDEAGPL [HBV pol 28] has a reported DC50 of <2 h

The sequence listed as LLDGTATLRL [gp 100 457, reference compound] has a reported DC50 of 2 to 4 h

The sequence listed as LLGCAANWIL [HBV pol 765] has a reported DC50 of 4 h

The sequence listed as ILLVVVLGV [HER-2/neu 661] has a reported DC50 of 2 to 4 h

The sequence listed as KLTGDENFTI [Tyrosinase 224] has a reported DC50 of <2 h

----------
# TESTED_ON: HLA A2.1 molecule (Homo sapiens, UniProt P04439, D140Y/D185E/D98H/E176V/E277Q/G131W/G231S/I119V/I121R/I166T/I218V/L300P/L318F/N151K/N90K/P208A/P217A/Q86G/Q94H/R138H/R169H/T345S)
# ASSAY_PROTOCOL: Stability of the peptide/HLA A2.1 complex (DC50) on T2 cells, flow cytometry
# Type: binding
RECORDED_ENDPOINT: DC, P1Y peptides

> print(dat)
     ordered.residues  result
1     ALVEICTEM [A9M]    >6 h
2     VIYQYMDDL [V9L]    <2 h
3     PLVKLWYQL [P9L]    <2 h
4     EMMTACQGV [E9V]    >6 h
5     LLWKGEGAV [L9V]    >6 h
6     KLTPLCVSL [K9L]    >6 h
7  VLDVGDAYFSV [V11V]   3.5 h
8   LLDTGADDTV [L10V]     4 h

The sequence listed as AFHNVAREL [A9L] has a reported DC, P1Y peptides of >6 h

----------
# Tested on: RMAS-HHD targets loaded with peptide
# ASSAY_PROTOCOL: Immunogenicity: CTL generation in HHD transgenic mice, 51Cr lysis of peptide-loaded targets
# Assay type: in vivo
# TEST_CONDITIONS: mouse, in vivo, sc
RECORDED_ENDPOINT: Responders/total mice

> print(dat)
                           ordered.residues  result
1                 PLTSIISAV [HER-2/neu 650]     0/6
2  SLADTNSLAV [gp100 570, reference compound]     6/9

The sequence listed as YLVPQQGFFC [HER-2/neu 1023, reference compound] has a reported Responders/total mice of 5/10

The sequence listed as TLEEITGYL [HER-2/neu 402] has a reported Responders/total mice of 0/6

The sequence listed as TDQVPFSV [gp100 209, reference compound] has a reported Responders/total mice of 4/6

The sequence listed as PLQPEQLQV [HER-2/neu 391] has a reported Responders/total mice of 0/6

The sequence listed as ELVSEFSRM [HER-2/neu 971, reference compound] has a reported Responders/total mice of 0/6

The sequence listed as ALIHHNTHL [HER-2/neu 466] has a reported Responders/total mice of 0/6

The sequence listed as ILLVVVLGV [HER-2/neu 661] has a reported Responders/total mice of 0/6

----------
Listing of entries alongside the reported DC50.
# TESTED_ON: HLA A2.1 molecule (Homo sapiens, UniProt P04439, D140Y/D185E/D98H/E176V/E277Q/G131W/G231S/I119V/I121R/I166T/I218V/L300P/L318F/N151K/N90K/P208A/P217A/Q86G/Q94H/R138H/R169H/T345S)
# ASSAY_PROTOCOL: Stability of the peptide/HLA A2.1 complex (DC50) on T2 cells, flow cytometry
# Format: binding
# TEST_CONDITIONS: native TERT peptides

> print(dat)
      ordered.residues  recorded.endpoint  result
1   FLSTLVHGV [mp 676]               DC50    >6 h
2  ILAKFLHWL [mhp 540]               DC50    >6 h

Please look at the following sequence next.
The sequence listed as FLFWLMDTYV [mp 534] has a reported DC50 of >6 h
